Attribution: PubChem BioAssay

- Method Notes: HCT116 colon cancer cell growth inhibition, primary screen, CellTiter-Glo luminescence, NPC library (AID 1117342)
- Protocol Conditions: at 20 µM (top of the series)
Calls of active or inactive are those of the source.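 Rule for the calls: active = compounds that lower survival of HCT116 colon cancer cells in the luminescence readout, no numeric limit stated; inactive = the rest.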
Pick one: class 1 (active), class 0 (inactive)

CCCCNc1ccc(C(=O)OCCN(CC)CC)cc1 = class 1
COC(=O)/C=C(/C)N = class 0
CCNC(=O)NCCCOc1cccc(CN2CCCCC2)c1 = class 0
CC(C)[N+](C)(C)CC(O)COc1cccc2ccccc12 (stereo unspecified) = class 0
CC[C@@]1(c2ccccc2)NC(=O)N(C)C1=O = class 0

Now look at this one.
Hi, sorry to bother you, what did the test record for CCN1CCCC1CN (stereo unspecified) ?
class 0
